Data credit: patent US6500405B1

system: tubulin in colon cancer cell line HCT-116; assay: Whole cell binding assay, tritiated S-enantiomer of compound 2 as probe, colon cancer cell line HCT-116; details: 10 μM; HCT-116; 1 hour preincubation, 1 hour with radioligand
Recorded Binding of radioligand (% control) by entry

Observe how each entry below is paired with its result.
CC[C@]1(O)C[C@@H]2CN(CCc3c([nH]c4ccccc34)[C@@](C(=O)OC)(c3cc4c(cc3OC)N(C)[C@H]3[C@@](O)(C(=O)OC)[C@H](OC(C)=O)[C@]5(CC)C=CCN6CC[C@]43[C@@H]65)C2)C1 [Vinblastine, vinblastine]; 286 % control
COc1cc([C@@H]2c3cc4c(cc3[C@H](O)[C@H]3COC(=O)[C@H]23)OCO4)cc(OC)c1OC [Podophyllotoxin, podophyllotoxin]; 0 % control
CC(=O)O[C@H]1C(=O)[C@@]2(C)[C@H]([C@H](OC(=O)c3ccccc3)[C@]3(O)C[C@H](OC(=O)[C@H](O)[C@@H](NC(=O)c4ccccc4)c4ccccc4)C(C)=C1C3(C)C)[C@]1(OC(C)=O)CO[C@@H]1C[C@@H]2O [Paclitaxel, paclitaxel]; 6 % control

Here is another compound to look at.
[Q] For the compound COC(=O)Nc1nc2ccc(C(=O)c3cccs3)cc2[nH]1 [Nocodazole, nocodazole] , give its reported Binding of radioligand (% control).
[A] 74 % control
